B1: MIA2 (parent)
chain: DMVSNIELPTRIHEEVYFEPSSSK

Variants of: B1
ASSAY_OVERVIEW: protein stability index of a GFP-peptide fusion (GPS, HEK-293T) (PSI 1-6); higher = more stable;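 further: lentivirally expressed fusions sorted by FACS into six bins by GFP to DsRed ratio, PSI derived from sequencing read proportions per bin multiplied by bin number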
MEASUREMENT_SETUP: c terminus: a fixed tail appended
// values below are reported protein stability index
Lab note: record the figure alone, no unit after it.

Recorded results for 2 variants are shown here.
[[record]]
variant_key = "L8E"
observed_result = 5.22

[[record]]
variant_key = "K24Q"
observed_result = 4.89


Short answer for I12Y : protein stability index was 3.87

Short answer for H13R : protein stability index was 3.8

Short answer for D1R : protein stability index was 4.25

Short answer for E19H : protein stability index was 3.14

Short answer for T10S : protein stability index was 4.13

Short answer for F18V : protein stability index was 3.8
